# assay notes: The drug is tested on Anaerotruncus colihominis strain: DSM17241 for biotransformation. The drug concentrations were measured before and after a 12-h incubation by liquid-chromatography-coupled mass spectrometry (LC–MS)
# cond: 2 µM
observed property: Bacterial Biotransformation

Known results for molecules:
>>> print(df.to_string())
                                   molecule            reported_value
0  CN1CCOC(c2ccccc2)c2ccccc2C1 (stereo not drawn)  Compound NOT metabolized
1  COC(=O)C(c1ccccc1)C1CCCCN1 (stereo not drawn) [METHYLPHENIDATE]  Compound NOT metabolized
2  CC(C)(C(=O)O)c1ccc(C(O)CCCN2CCC(C(O)(c3ccccc3)c3ccccc3)CC2)cc1 (stereo not drawn) [FEXOFENADINE]  Compound NOT metabolized
3           CN1CCC(OC(c2ccccc2)c2ccccc2)CC1  Compound NOT metabolized

// query Look up and report measured Bacterial Biotransformation for this entry: N[C@@H](Cc1ccc(N(CCCl)CCCl)cc1)C(=O)O
// result Compound metabolized

// query Look up and report measured Bacterial Biotransformation for this entry: CSc1ccc2c(c1)C(N1CCN(C)CC1)Cc1ccccc1S2.O=C(O)/C=C\C(=O)O (stereo not drawn)
// result Compound metabolized

// query Look up and report measured Bacterial Biotransformation for this entry: CCCCCCOC(=O)/N=C(/N)c1ccc(NCc2nc3cc(C(=O)N(CCC(=O)OCC)c4ccccn4)ccc3n2C)cc1.CS(=O)(=O)O [DABIGATRAN ETEXILATE MESYLATE]
// result Compound NOT metabolized

* * *

# assay notes: The drug is tested on Bacteroides uniformis strain: ATCC8492 for biotransformation. The drug concentrations were measured before and after a 12-h incubation by liquid-chromatography-coupled mass spectrometry (LC–MS)
# cond: 2 µM
observed property: Bacterial Biotransformation

In [3]: df
Out[3]:
                                   compound            reported_value
0  CCOC(=O)[C@H](CCc1ccccc1)N[C@@H](C)C(=O)N1CCC[C@H]1C(=O)O.O=C(O)/C=C\C(=O)O [ENALAPRIL MALEATE]  Compound NOT metabolized
1  O=c1[nH]c2ccccc2n1CCCN1CCC(n2c(=O)[nH]c3cc(Cl)ccc32)CC1  Compound NOT metabolized
2  CCN1CCCC1CNC(=O)c1cc(S(N)(=O)=O)ccc1OC (stereo not drawn) [SULPIRIDE]  Compound NOT metabolized
3  CN1CCN2c3ccccc3Cc3ccccc3C2C1 (stereo not drawn)  Compound NOT metabolized
4  COC(=O)[C@H](c1ccccc1Cl)N1CCc2sccc2C1.O=S(=O)(O)O [CLOPIDOGREL BISULFATE]      Compound metabolized

// query Look up and report measured Bacterial Biotransformation for this entry: NC12CC3CC(CC(C3)C1)C2
// result Compound metabolized

// query Look up and report measured Bacterial Biotransformation for this entry: COc1ccccc1OCCNCC(O)COc1cccc2[nH]c3ccccc3c12 (stereo not drawn)
// result Compound metabolized

// query Look up and report measured Bacterial Biotransformation for this entry: CC(C)(C)NC[C@H](O)COc1ccccc1C1CCCC1.CC(C)(C)NC[C@H](O)COc1ccccc1C1CCCC1.O=S(=O)(O)O [PENBUTOLOL SULFATE]
// result Compound metabolized

* * *

# assay notes: The drug is tested on Bifidobacterium breve strain: DSM20213 for biotransformation. The drug concentrations were measured before and after a 12-h incubation by liquid-chromatography-coupled mass spectrometry (LC–MS)
# cond: 2 µM
observed property: Bacterial Biotransformation

Known results for compounds:
compound	Bacterial Biotransformation
Nc1nc(NC2CC2)c2ncn([C@H]3C=C[C@@H](CO)C3)c2n1.Nc1nc(NC2CC2)c2ncn([C@H]3C=C[C@@H](CO)C3)c2n1.O=S(=O)(O)O [ABACAVIR SULFATE]	Compound NOT metabolized
CC(=O)OCC(=O)[C@@]12N=C(C)O[C@@H]1C[C@H]1[C@@H]3CCC4=CC(=O)C=C[C@]4(C)[C@H]3[C@@H](O)C[C@@]12C	Compound metabolized
CCN1CCCC1CNC(=O)c1cc(S(N)(=O)=O)ccc1OC (stereo not drawn) [SULPIRIDE]	Compound NOT metabolized
CSc1ccc2c(c1)C(N1CCN(C)CC1)Cc1ccccc1S2.O=C(O)/C=C\C(=O)O (stereo not drawn)	Compound metabolized
COc1ccc2cc([C@H](C)C(=O)O)ccc2c1	Compound NOT metabolized

// query Look up and report measured Bacterial Biotransformation for this entry: CCCN1C[C@H](CSC)C[C@@H]2c3cccc4[nH]cc(c34)C[C@H]21.CS(=O)(=O)O [PERGOLIDE MESYLATE]
// result Compound NOT metabolized

// query Look up and report measured Bacterial Biotransformation for this entry: C[N+]12CCC(CC1)C(OC(=O)C(O)(c1ccccc1)c1ccccc1)C2.[Br-] (stereo not drawn) [CLIDINIUM BROMIDE]
// result Compound NOT metabolized

// query Look up and report measured Bacterial Biotransformation for this entry: CCc1nn(CCCN2CCN(c3cccc(Cl)c3)CC2)c(=O)n1CCOc1ccccc1
// result Compound NOT metabolized

* * *

# assay notes: The drug is tested on Bacteroides caccae strain: ATCC43185 for biotransformation. The drug concentrations were measured before and after a 12-h incubation by liquid-chromatography-coupled mass spectrometry (LC–MS)
# cond: 2 µM
observed property: Bacterial Biotransformation

Known results for molecules:
>>> df
                                   molecule            reported_value
0  Cc1ccc(/C(=C\CN2CCCC2)c2ccccn2)cc1 [TRIPROLIDINE]  Compound NOT metabolized
1  O=C(Nc1ccccc1)OCC(CN1CCCCC1)OC(=O)Nc1ccccc1 (centres undefined) [DIPERODON]  Compound NOT metabolized
2  CC(C)(C)NC[C@H](O)COc1ccccc1C1CCCC1.CC(C)(C)NC[C@H](O)COc1ccccc1C1CCCC1.O=S(=O)(O)O [PENBUTOLOL SULFATE]  Compound NOT metabolized
3  CCOc1ccccc1OCCN[C@H](C)Cc1ccc(OC)c(S(N)(=O)=O)c1.Cl [TAMSULOSIN HYDROCHLORIDE]  Compound NOT metabolized
4  COC(=O)Nc1nc2ccc(C(=O)c3ccccc3)cc2[nH]1 [MEBENDAZOLE]  Compound NOT metabolized

// query Look up and report measured Bacterial Biotransformation for this entry: CN1CCC(OC(c2ccccc2)c2ccccc2)CC1
// result Compound NOT metabolized

// query Look up and report measured Bacterial Biotransformation for this entry: Nc1nc2ccc(OC(F)(F)F)cc2s1 [RILUZOLE]
// result Compound NOT metabolized

// query Look up and report measured Bacterial Biotransformation for this entry: COc1ccc(CN2CCNCC2)c(OC)c1OC.Cl.Cl [TRIMETAZIDINE DIHYDROCHLORIDE]
// result Compound NOT metabolized

* * *

# assay notes: The drug is tested on Collinsella aerofaciens strain: ATCC25986 for biotransformation. The drug concentrations were measured before and after a 12-h incubation by liquid-chromatography-coupled mass spectrometry (LC–MS)
# cond: 2 µM
observed property: Bacterial Biotransformation

Known results for compounds:
compound	Bacterial Biotransformation
Nc1c2c(nc3ccccc13)CCCC2 [TACRINE]	Compound NOT metabolized
CC(C)(C#N)c1cc(Cn2cncn2)cc(C(C)(C)C#N)c1 [ANASTROZOLE]	Compound NOT metabolized
C=CCN1CC[C@]23c4c5ccc(O)c4O[C@H]2C(=O)CC[C@@]3(O)[C@H]1C5 [NALOXONE]	Compound NOT metabolized
CC(=O)Oc1ccc(C(c2ccc(OC(C)=O)cc2)c2ccccn2)cc1 [BISACODYL]	Compound metabolized
COc1c2occc2cc2ccc(=O)oc12 [METHOXSALEN]	Compound NOT metabolized
COc1ccc2c3c1O[C@H]1C[C@@H](O)C=C[C@@]31CCN(C)C2 [GALANTAMINE]	Compound NOT metabolized
C#C[C@]1(O)CC[C@H]2[C@@H]3CCC4=Cc5oncc5C[C@]4(C)[C@H]3CC[C@@]21C [DANAZOL]	Compound metabolized

// query Look up and report measured Bacterial Biotransformation for this entry: CC(C)c1nc(N(C)S(C)(=O)=O)nc(-c2ccc(F)cc2)c1/C=C/[C@@H](O)C[C@@H](O)CC(=O)[O-].CC(C)c1nc(N(C)S(C)(=O)=O)nc(-c2ccc(F)cc2)c1/C=C/[C@@H](O)C[C@@H](O)CC(=O)[O-].[Ca+2] [ROSUVASTATIN CALCIUM]
// result Compound NOT metabolized

* * *

# assay notes: The drug is tested on Alistipes indistinctus strain: DSM22520 for biotransformation. The drug concentrations were measured before and after a 12-h incubation by liquid-chromatography-coupled mass spectrometry (LC–MS)
# cond: 2 µM
observed property: Bacterial Biotransformation

Known results for compounds:
compound	Bacterial Biotransformation
Cc1nc2n(c(=O)c1CCN1CCC(c3noc4cc(F)ccc34)CC1)CCCC2O (stereo unspecified)	Compound metabolized
CC(C)(C)N.CCC[C@H](N[C@@H](C)C(=O)N1[C@H](C(=O)O)C[C@@H]2CCCC[C@@H]21)C(=O)OCC	Compound NOT metabolized
COc1c2occc2cc2ccc(=O)oc12	Compound NOT metabolized
COc1cc2nc(N3CCN(C(=O)C4COc5ccccc5O4)CC3)nc(N)c2cc1OC.CS(=O)(=O)O (stereo unspecified) [DOXAZOSIN MESYLATE]	Compound metabolized
COC(=O)[C@H](c1ccccc1Cl)N1CCc2sccc2C1.O=S(=O)(O)O [CLOPIDOGREL BISULFATE]	Compound NOT metabolized

// query Look up and report measured Bacterial Biotransformation for this entry: CCN(CC)CCOCCOC(=O)C1(c2ccccc2)CCCC1.O=C(O)CC(O)(CC(=O)O)C(=O)O [CARBETAPENTANE CITRATE]
// result Compound metabolized

// query Look up and report measured Bacterial Biotransformation for this entry: CCCC1O[C@@H]2C[C@H]3[C@@H]4CCC5=CC(=O)C=C[C@]5(C)[C@H]4[C@@H](O)C[C@]3(C)[C@]2(C(=O)CO)O1 (stereo partly specified) [BUDESONIDE]
// result Compound NOT metabolized

// query Look up and report measured Bacterial Biotransformation for this entry: CCCCCNC(=N)N/N=C/c1c[nH]c2ccc(OC)cc12.O=C(O)/C=C\C(=O)O [TEGASEROD MALEATE]
// result Compound NOT metabolized

// query Look up and report measured Bacterial Biotransformation for this entry: COC(=O)C(c1ccccc1)C1CCCCN1 (stereo unspecified) [METHYLPHENIDATE]
// result Compound NOT metabolized

// query Look up and report measured Bacterial Biotransformation for this entry: Cc1nc(Nc2ncc(C(=O)Nc3c(C)cccc3Cl)s2)cc(N2CCN(CCO)CC2)n1.O
// result Compound NOT metabolized

// query Look up and report measured Bacterial Biotransformation for this entry: CCc1oc2ccccc2c1C(=O)c1cc(Br)c(O)c(Br)c1
// result Compound NOT metabolized

// query Look up and report measured Bacterial Biotransformation for this entry: CCOC(=O)[C@H](CCc1ccccc1)N[C@H]1CCc2ccccc2N(CC(=O)O)C1=O
// result Compound NOT metabolized
